Origin of the recorded values: the RNAGym collection of RNA variant scans (doi:10.1002/anie.201605470)

B1: Osa-1-4 twister ribozyme (parent)
chain: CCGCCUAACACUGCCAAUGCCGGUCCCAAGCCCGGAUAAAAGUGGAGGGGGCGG

Variants of: B1
EXPERIMENT: self-cleavage, relative activity (ratio to wild type); higher = more cleavage; co-transcriptional
QUANTITY_NAME: self-cleavage

QUERY_SEQUENCE | QUANTITY_NAME | NUMERIC_VALUE
CCGCCUAACACUGCCAAUGCCGGUCCCAAGCCCGGUUAAAUGUGGAGGGGGCGG [A36U A41U] | self-cleavage | 1.02
CCGCCUAACACUGCCAAUGCCGGUACCAAGCCCGGAUAAUAGUGGAGGGGGCGG [A40U C25A] | self-cleavage | 0.06
CCGCCUAACACUGCCAAUGCCGGUCCCAAGCCAGGAUAAAAGUGGAGGGGACGG [C33A G51A] | self-cleavage | 0.06
CCGCCUAACACUGCGCAUGCCGGUCCCAAGCCCGGAUAAAAGUGGAGGGGGCGG [A16C C15G] | self-cleavage | 0.54
CCGCCUAACACUGCCAAUGCCGGUCCCAAGCGCGGAUAAAAGUGGAGUGGGCGG [C32G G48U] | self-cleavage | 0.03
